Sourced from ChEMBL document CHEMBL2434878

System: Mycobacterium tuberculosis
method: Antimicrobial activity against Mycobacterium tuberculosis H37Rv ATCC 27294 expressing luciferase reporter gene assessed as reduction in bacterial count after 6 days by luminometry
Format: functional
conditionDescription: H37Rv ATCC 27294, 144 h
measuredProperty: MIC90
Remember to quote the unit after the number.

Query: Any idea what MIC90 was measured for COc1ccc(-c2cc3c(c(/C=C/N(C)C)n2)C(=O)c2ccccc2C3=O)cc1 ?
Result: 0.88 µM

Query: Consider the compound Cc1ccc(-c2cc3c(c(/C=C/N(C)C)n2)C(=O)c2ccccc2C3=O)cc1 and give its measured MIC90.
Result: 1.5 µM

Query: Could you share which MIC90 value was measured for COc1ccc(-c2cc(O)c3c(c2)C(=O)c2ccccc2C3=O)cc1 ?
Result: 0.92 µM

Query: Request the reported MIC90 associated with CN(C)/C=C/c1nc(-c2ccc(Cl)cc2)cc2c1C(=O)c1ccccc1C2=O
Result: 1.1 µM

Query: Fill in: MIC90 of CO[C@H]1/C=C/O[C@@]2(C)Oc3c(C)c(O)c4c(O)c(c(/C=N/N5CCN(C)CC5)c(O)c4c3C2=O)NC(=O)/C(C)=C\C=C\[C@H](C)[C@H](O)[C@@H](C)[C@@H](O)[C@@H](C)[C@H](OC(C)=O)[C@@H]1C [RIFAMPIN] is ___
Result: 0.12 µM

Query: Entry under review: O=C1c2ccccc2C(=O)c2c(O)cc(-c3ccccc3)cc21 . Reported MIC90?
Result: 2.12 µM

Query: Given the compound Cc1ccc(-c2cc3c4c(nccc4n2)-c2ccccc2C3=O)cc1 , what is its reported MIC90?
Result: 1.31 µM

Query: What value of MIC90 has been reported for the following compound? CN(C)/C=C/c1nc(-c2ccccc2)cc2c1C(=O)c1ccccc1C2=O
Result: 1.4 µM
